We begin with a simple list: items and their reported RU.
Molecular target: gEgI WT: HSV2 gEgI heterodimer comprising gE and gI wildtype ectodomains (HSV2, UniProt P89475 21-416; P06764 21-256)
Assay: SPR binning; gEgI captured by mAb 42
readoutKind: RU

binder="mAb clone 20 (antibody, V domains shown) VH: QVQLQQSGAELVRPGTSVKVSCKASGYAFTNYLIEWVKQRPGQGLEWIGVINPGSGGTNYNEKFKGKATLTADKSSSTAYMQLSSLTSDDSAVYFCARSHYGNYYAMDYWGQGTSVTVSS VL: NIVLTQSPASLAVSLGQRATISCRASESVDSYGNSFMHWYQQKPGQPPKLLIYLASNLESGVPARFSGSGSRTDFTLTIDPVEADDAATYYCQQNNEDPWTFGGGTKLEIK" readoutkind=RU testresult="24.5 RU"
binder="mAb clone 19 (antibody, V domains shown) VH: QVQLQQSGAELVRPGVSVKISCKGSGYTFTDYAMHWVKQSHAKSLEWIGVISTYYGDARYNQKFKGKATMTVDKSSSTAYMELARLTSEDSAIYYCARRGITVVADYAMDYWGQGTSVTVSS VL: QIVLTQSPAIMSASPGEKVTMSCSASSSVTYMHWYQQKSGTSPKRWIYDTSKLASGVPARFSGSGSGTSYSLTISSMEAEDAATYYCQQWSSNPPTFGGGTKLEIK" readoutkind=RU testresult="16.3 RU"
binder="mAb clone 15 (antibody, V domains shown) VH: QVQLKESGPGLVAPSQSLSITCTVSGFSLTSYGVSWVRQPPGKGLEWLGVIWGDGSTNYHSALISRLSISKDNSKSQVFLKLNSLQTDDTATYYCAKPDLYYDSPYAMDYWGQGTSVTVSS VL: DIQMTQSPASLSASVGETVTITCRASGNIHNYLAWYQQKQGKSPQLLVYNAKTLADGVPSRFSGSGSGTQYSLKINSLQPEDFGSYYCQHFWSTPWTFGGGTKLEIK" readoutkind=RU testresult="9.8 RU"

The origin of these recorded values is patent US20230331820A1.
